- assayed.target: T1, human CX3CR1 (human, UniProt P49238 1-355)
- T1 sequence: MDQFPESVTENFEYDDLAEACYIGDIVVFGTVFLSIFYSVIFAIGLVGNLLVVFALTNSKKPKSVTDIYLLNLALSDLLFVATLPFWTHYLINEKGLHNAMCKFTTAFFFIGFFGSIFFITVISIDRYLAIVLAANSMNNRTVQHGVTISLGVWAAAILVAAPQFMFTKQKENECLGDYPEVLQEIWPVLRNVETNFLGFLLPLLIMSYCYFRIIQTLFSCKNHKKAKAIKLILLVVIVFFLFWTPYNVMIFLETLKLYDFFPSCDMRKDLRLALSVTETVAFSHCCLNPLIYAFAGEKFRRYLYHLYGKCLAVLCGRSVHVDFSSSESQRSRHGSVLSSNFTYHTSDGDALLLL
- protocol.notes: cell-based or functional assay
Listed here: items and their measured Cell migration inhibitory activity (IC50, nM).
Value expressed in nM; do not type the unit.

Here are 2 binders together with their reported answers.
binder | reported.result
h1F8-2-3 (antibody, V domains shown, Humanized antibody; also called humanized 1F8 antibody h1F8-2-3) VH: QVQLVQSGAEVKKPGSSVKVSCKASGFTFTNYWMQWIRQAPGQGLEWIGAIYPGSGESRYTRKFKGRATLTADKSTSTAYMELSSLRSEDTAVYYCARWAGYSRNAAYWGQGTLVTVSS VL: DIVMTQTPLSLPVTPGEPASISCRSRQSIVHSSGNTYLEWYLQKPGQSPQLLIYKVSNRFSGVPDRFSGSGSGTDFTLKISRVEAEDVGVYYCFQGSHIPPTFGGGTKVEIK | 1.4
h1F8-2-2 antibody (antibody, IgG1, V domains shown, Humanized antibody; also called humanized 1F8 antibody (h1F8-2-2)) VH: QVQLVQSGAEVKKPGSSVKVSCKASGFTFTNYWMQWIRQAPGQGLEWIGAIYPGSGESRYTRKFKGKATITADKSTSTAYMELSSLRSEDTAVYYCARWAGYSRNAAYWGQGTLVTVSS VL: DIVMTQTPLSLPVTPGEPASISCRSRQSIVHSSGNTYLEWYLQKPGQSPQLLIYKVSNRFSGVPDRFSGSGSGTDFTLKISRVEAEDVGVYYCFQGSHIPPTFGGGTKVEIK | 1.27

Okay, next one:
Prompt line: I am curious: what Cell migration inhibitory activity (IC50, nM) value has been reported for h1F8-2-1 (antibody, V domains shown, Humanized antibody; also called humanized 1F8 antibody h1F8-2-1) VH: QVQLVQSGAEVKKPGSSVKVSCKASGFTFTNYWMQWIRQAPGQGLEWIGAIYPGSGESRYTRKFKGRATITADKSTSTAYMELSSLRSEDTAVYYCARWAGYSRNAAYWGQGTLVTVSS VL: DIVMTQTPLSLPVTPGEPASISCRSRQSIVHSSGNTYLEWYLQKPGQSPQLLIYKVSNRFSGVPDRFSGSGSGTDFTLKISRVEAEDVGVYYCFQGSHIPPTFGGGTKVEIK ?
Response line: 2.02
